# tested_system: human mGluR4 transiently over-expressed in HEK-293 cells (Homo sapiens)
# Sequence (Q14833 33-912): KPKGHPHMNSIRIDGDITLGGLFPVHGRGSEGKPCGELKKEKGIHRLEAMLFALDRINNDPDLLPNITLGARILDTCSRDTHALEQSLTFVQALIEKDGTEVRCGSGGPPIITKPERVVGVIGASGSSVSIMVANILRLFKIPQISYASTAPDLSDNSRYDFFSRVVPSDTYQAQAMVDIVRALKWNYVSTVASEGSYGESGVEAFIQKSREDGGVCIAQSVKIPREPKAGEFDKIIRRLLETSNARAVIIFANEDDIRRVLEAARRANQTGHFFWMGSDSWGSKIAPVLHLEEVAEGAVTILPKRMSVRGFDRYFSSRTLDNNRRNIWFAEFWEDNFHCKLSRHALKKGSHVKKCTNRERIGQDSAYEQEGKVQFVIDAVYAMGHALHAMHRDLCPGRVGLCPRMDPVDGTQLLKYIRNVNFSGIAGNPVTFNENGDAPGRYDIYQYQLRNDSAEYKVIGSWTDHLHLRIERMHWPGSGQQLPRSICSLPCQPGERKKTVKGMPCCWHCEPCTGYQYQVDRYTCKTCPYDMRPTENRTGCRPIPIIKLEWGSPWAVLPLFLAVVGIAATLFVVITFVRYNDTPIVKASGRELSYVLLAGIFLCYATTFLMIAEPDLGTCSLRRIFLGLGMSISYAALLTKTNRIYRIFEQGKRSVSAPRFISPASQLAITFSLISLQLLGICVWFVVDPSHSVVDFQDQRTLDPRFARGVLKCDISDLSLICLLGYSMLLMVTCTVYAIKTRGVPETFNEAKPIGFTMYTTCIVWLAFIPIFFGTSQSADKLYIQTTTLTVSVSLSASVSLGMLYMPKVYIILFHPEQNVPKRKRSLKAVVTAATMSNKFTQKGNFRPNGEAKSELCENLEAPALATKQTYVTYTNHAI
# procedure_summary: Human mGluR4 positive allosteric modulator evaluation using Ca++ functional assay
# test_parameters: HEK-293 cells co-transfected with hmGluR4 and chimeric G protein; EC10 glutamate; intracellular calcium (Fluo4AM); read-out: mean EC50 of agonist/positive allosteric modulator activity on mGluR4
Assignment: determine reported EC50 for the given compounds.

Give the measured EC50 for ON=c1cc(-c2cc3cccn3cn2)oc2ccc(OCCCOc3cccc(F)c3)cc12 [Example 163]
< 1 µM

Give the measured EC50 for Cl.ON=c1cc(-c2cc3cccn3cn2)oc2ccc(OCCN3CCCCC3)cc12 [Example 88, hydrochloride]
< 5 µM

Give the measured EC50 for COCCOCC#Cc1ccc2c(=NO)cc(-c3cc4ccccc4cn3)oc2c1 (mixture of isomers) [Example 54]
< 5 µM
